# Method: recombinant UMI read abundance after kanamycin selection (control-corrected) (log10(CPM+1)); higher = more efficient recombination; extreme values may be limits of the assay; sequences stand for … in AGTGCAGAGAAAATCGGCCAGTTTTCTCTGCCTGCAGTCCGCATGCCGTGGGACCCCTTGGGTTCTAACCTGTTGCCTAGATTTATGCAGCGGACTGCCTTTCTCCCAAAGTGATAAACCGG…AGGTTGGTTTCACT; site = the 11-nt donor
Endpoint label: recombinant UMI read abundance (log10)

For orientation, consider the following solved cases.
// query Entry TTTCTAGCATGGACCGGTTTTCCCGGTAATCCGTATTTGAC (site TTTCTAGCTGT) has what recombinant UMI read abundance (log10)?
// result 0.582

// query # iterate: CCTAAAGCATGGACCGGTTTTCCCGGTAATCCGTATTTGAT (site CTTAAAGCTAT)
// result 0.00697

// query # iterate: ATTCATACATGGACCGGTTTTCCCGGTAATCCGTATTTGGC (site ATTCATACTGC)
// result 1.81

Continuing:
// query Entry ACTAGAACATGGACCGGTTTTCCCGGTAATCCGTATTTGTG (site ACTAGAACTCT) has what recombinant UMI read abundance (log10)?
// result 0

// query # iterate: TCACACTCATGGACCGGTTTTCCCGGTAATCCGTATTTGCA (site TCATACTCTTG)
// result 1.85

====

Quick reference: recombinant UMI read abundance (log10) of the listed items.
# Method: recombinant UMI read abundance after kanamycin selection (control-corrected) (log10(CPM+1)); higher = more efficient recombination; extreme values may be limits of the assay; sequences stand for … in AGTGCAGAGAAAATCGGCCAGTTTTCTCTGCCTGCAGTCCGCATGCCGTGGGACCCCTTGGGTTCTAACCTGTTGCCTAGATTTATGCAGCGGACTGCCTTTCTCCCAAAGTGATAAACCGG…AGGTTGGTTTCACT; site = the 11-nt donor
Just the number, please, no unit attached.

For orientation, consider the following solved cases.
// query Entry AGAAAAACATGGACCGGTTTTCCCGGTAATCCGTATTTGCA (site AGGAAGACTTG) has what recombinant UMI read abundance (log10)?
// result 0

// query # iterate: TCTTCCCCATGGACCGGTTTTCCCGGTAATCCGTATTTGTA (site TATTCCCCTTA)
// result 0.0172

// query # iterate: ATACTAACATGGACCGGTTTTCCCGGTAATCCGTATTTGGA (site GTACTAACTTC)
// result 0.275

// query # iterate: GTTCGAGCATGGACCGGTTTTCCCGGTAATCCGTATTTGCG (site GTTCGAGCTTG)
// result 1.23

// query # iterate: CACGGCGCATGGACCGGTTTTCCCGGTAATCCGTATTTGTT (site CACGGCCCTAA)
// result 0.445

Proceeding to the next sequence to report its recombinant UMI read abundance (log10).
// query Entry AGTTTGGCATGGACCGGTTTTCCCGGTAATCCGTATTTGCT (site AGTTTGGCTAG) has what recombinant UMI read abundance (log10)?
// result 0.0222

====

# Method: recombinant barcode read abundance after kanamycin selection (control-corrected) (log10(CPM+1)); higher = more efficient recombination; sequences stand for … in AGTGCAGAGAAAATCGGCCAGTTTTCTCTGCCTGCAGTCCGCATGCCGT…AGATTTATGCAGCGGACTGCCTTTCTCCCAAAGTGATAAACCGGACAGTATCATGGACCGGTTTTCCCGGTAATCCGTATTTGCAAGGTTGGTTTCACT; site = the 11-nt target
Decide using recombinant barcode read abundance (log10): a value greater than or equal to 0.1 is true, a smaller one is false.

// query Determine whether measured recombinant barcode read abundance (log10) meets or exceeds 0.1 for TAAACAGCTTGGGTTCTAACCTGTTGCCT (site TATACAGCTAG)
// result false

// query # iterate: AATGGGCCTTGGGTTCTAACCTGTTGCCT (site AATGGGGCTAG)
// result true

// query # iterate: CGACACACTTGGGTTCTAACCTGTTGCCT (site CGTCACACTAG)
// result false

// query # iterate: CCGCTCGCTTGGGTTCTAACCTGTTGCCT (site CCGCTCGCTAG)
// result true

// query # iterate: CGACAGGCTTGGGTTCTAACCTGTTGCCT (site AGACTGGCTAG)
// result false

// query # iterate: GTGCGCCCTTGGGTTCTAACCTGTTGCGT (site GTGCGCCCTCC)
// result true

// query # iterate: TACCCGTCTTGGGTTCTAACCTGTTGCTT (site TACCTGTCTAA)
// result false

// query # iterate: AGACGGACTTGGGTTCTAACCTGTTGCCA (site CTTGCTCCTAT)
// result true

// query # iterate: CCTTGAGCTTGGGTTCTAACCTGTTGCTG (site GCTTGAGCTCG)
// result false

// query # iterate: CACAAGTCTTGGGTTCTAACCTGTTGCGT (site CACCAGTCTCC)
// result false

// provenance: the supplement of paper PMC11208160
